Target: Beta-secretase 1 (Homo sapiens) (UniProt P56817)
Sequence (P56817 whole entry): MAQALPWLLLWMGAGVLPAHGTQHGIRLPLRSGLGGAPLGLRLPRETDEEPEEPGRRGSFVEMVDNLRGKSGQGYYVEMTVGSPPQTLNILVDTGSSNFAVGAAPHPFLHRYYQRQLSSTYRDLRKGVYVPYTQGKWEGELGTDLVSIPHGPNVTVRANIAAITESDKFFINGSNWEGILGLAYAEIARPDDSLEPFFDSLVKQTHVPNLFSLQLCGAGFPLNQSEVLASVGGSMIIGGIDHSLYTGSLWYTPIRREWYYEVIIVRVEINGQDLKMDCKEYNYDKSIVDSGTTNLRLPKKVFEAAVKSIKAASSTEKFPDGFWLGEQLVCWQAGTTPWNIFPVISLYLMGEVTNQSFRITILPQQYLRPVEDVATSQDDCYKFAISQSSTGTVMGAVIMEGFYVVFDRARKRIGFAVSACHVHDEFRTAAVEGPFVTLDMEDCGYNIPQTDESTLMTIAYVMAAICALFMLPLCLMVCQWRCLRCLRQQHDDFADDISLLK
Assay: Activity of recombinant BACE assessed as substrate cleavage at 300 uM after 3 hrs by HPLC analysis
Calls of active or inactive are those of the source. The calls are words filed in the database; no cut-off is given here. Residues, ends and D or L forms follow the SMILES beside them.

| Compound | System name | Activity |
| --- | --- | --- |
| CC[C@H](C)[C@H](N)C(=O)N[C@@H](CO)C(=O)N[C@@H](CCC(=O)O)C(=O)N[C@H](C(=O)N[C@@H](CC(N)=O)C(=O)N[C@@H](CC(C)C)C(=O)N[C@@H](CC(=O)O)C(=O)N[C@@H](C)C(=O)N[C@@H](CCC(=O)O)C(=O)N[C@@H](Cc1ccccc1)C(=O)N[C@@H](CCCNC(=N)N)C(=O)N[C@@H](Cc1cnc[nH]1)C(N)=O)[C@@H](C)CC (H-ISEINLDAEFRH-NH2) | Beta-secretase 1 (Homo sapiens) (UniProt P56817) | Active |
| CC[C@H](C)[C@H](N)C(=O)N[C@@H](CO)C(=O)N[C@@H](CCC(=O)O)C(=O)N[C@H](C(=O)N[C@@H](CC(N)=O)C(=O)N[C@@H](CCSC)C(=O)N[C@@H](CC(=O)O)C(=O)N[C@@H](C)C(=O)N[C@@H](CCC(=O)O)C(=O)N[C@@H](Cc1ccccc1)C(=O)N[C@@H](CCCNC(=N)N)C(=O)N[C@@H](Cc1cnc[nH]1)C(N)=O)C(C)C (H-ISEVNMDAEFRH-NH2) | Beta-secretase 1 (Homo sapiens) (UniProt P56817) | Active |

###

Target: Beta-secretase 1 (Homo sapiens) (UniProt P56817)
Experiment: Activity of recombinant BACE assessed as retention time of substrate by HPLC method
Non-standard residues stand in square brackets, D forms with d. Residues, ends and D or L forms follow the SMILES beside them. Cit = NC(=O)NCCC[C@H](N)C(=O)O; Phg = N[C@H](C(=O)O)c1ccccc1
Measured retention time values are reported for all entries that follow.

| Compound | retention time / h |
| --- | --- |
| CC[C@H](C)[C@H](N)C(=O)N[C@@H](CO)C(=O)N[C@@H](CCC(=O)O)C(=O)N[C@H](C(=O)N[C@@H](CC(N)=O)C(=O)N[C@H](C(=O)N[C@@H](CC(=O)O)C(=O)N[C@@H](C)C(=O)N[C@@H](CCC(=O)O)C(=O)N[C@@H](Cc1ccccc1)C(=O)N[C@@H](CCCNC(=N)N)C(=O)N[C@@H](Cc1cnc[nH]1)C(N)=O)c1ccccc1)C(C)C (H-ISEVN[Phg]DAEFRH-NH2) | 0.459 |
| CC[C@H](C)[C@H](N)C(=O)N[C@@H](CO)C(=O)N[C@@H](CCC(=O)O)C(=O)N[C@H](C(=O)N[C@@H](CC(N)=O)C(=O)N[C@@H](CC(C)C)C(=O)N[C@@H](CCCNC(N)=O)C(=O)N[C@@H](C)C(=O)N[C@@H](CCC(=O)O)C(=O)N[C@@H](Cc1ccccc1)C(=O)N[C@@H](CCCNC(=N)N)C(=O)N[C@@H](Cc1cnc[nH]1)C(N)=O)C(C)C (H-ISEVNL[Cit]AEFRH-NH2) | 0.536 |
| CC[C@H](C)[C@H](N)C(=O)N[C@@H](CO)C(=O)N[C@@H](CCC(=O)O)C(=O)N[C@H](C(=O)N[C@@H](Cc1ccccc1)C(=O)N[C@@H](CC(C)C)C(=O)N[C@@H](CC(=O)O)C(=O)N[C@@H](C)C(=O)N[C@@H](CCC(=O)O)C(=O)N[C@@H](Cc1ccccc1)C(=O)N[C@@H](CCCNC(=N)N)C(=O)N[C@@H](Cc1cnc[nH]1)C(N)=O)C(C)C (H-ISEVFLDAEFRH-NH2) | 0.565 |

###

Target: Beta-secretase 1 (Homo sapiens)
Assay: Activity of recombinant BACE assessed as substrate cleavage at 300 uM after 3 hrs by HPLC analysis
The source made the active and inactive calls. No cut-off for these calls is given here. Non-standard residues stand in square brackets, D forms with d. Residues, ends and D or L forms follow the SMILES beside them. Nva = CCC[C@H](N)C(=O)O
Quantity: Activity

| Compound | Quantity | Result |
| --- | --- | --- |
| CCC[C@H](NC(=O)[C@H](CC(N)=O)NC(=O)[C@@H](NC(=O)[C@H](CCC(=O)O)NC(=O)[C@H](CO)NC(=O)[C@@H](N)[C@@H](C)CC)C(C)C)C(=O)N[C@@H](CC(=O)O)C(=O)N[C@@H](C)C(=O)N[C@@H](CCC(=O)O)C(=O)N[C@@H](Cc1ccccc1)C(=O)N[C@@H](CCCNC(=N)N)C(=O)N[C@@H](Cc1cnc[nH]1)C(N)=O (H-ISEVN[Nva]DAEFRH-NH2) | Activity | Active |
| CC[C@H](C)[C@H](N)C(=O)N[C@@H](CO)C(=O)N[C@@H](CCC(=O)O)C(=O)N[C@H](C(=O)N[C@@H](CC(N)=O)C(=O)N[C@@H](CC(C)C)C(=O)N[C@@H](CC(=O)O)C(=O)N[C@@H](C)C(=O)N[C@@H](CCC(=O)O)C(=O)N[C@@H](Cc1ccccc1)C(=O)N[C@@H](CCCNC(=N)N)C(=O)N[C@@H](Cc1cnc[nH]1)C(N)=O)C(C)C (H-ISEVNLDAEFRH-NH2) | Activity | 50% |
| CC[C@H](C)[C@H](N)C(=O)N[C@@H](CO)C(=O)N[C@@H](CCC(=O)O)C(=O)N[C@H](C(=O)N[C@@H](CCSC)C(=O)N[C@@H](CC(C)C)C(=O)N[C@@H](CC(=O)O)C(=O)N[C@@H](C)C(=O)N[C@@H](CCC(=O)O)C(=O)N[C@@H](Cc1ccccc1)C(=O)N[C@@H](CCCNC(=N)N)C(=O)N[C@@H](Cc1cnc[nH]1)C(N)=O)C(C)C (H-ISEVMLDAEFRH-NH2) | Activity | Active |

###

Biological target: Beta-secretase 1 (Homo sapiens) (UniProt P56817)
Assay: Activity of recombinant BACE assessed as retention time of substrate by HPLC method
Non-standard residues stand in square brackets, D forms with d. Residues, ends and D or L forms follow the SMILES beside them. Tle = CC(C)(C)[C@H](N)C(=O)O
Catalogue of molecules with associated retention time

| Molecule | retention time / h |
| --- | --- |
| CC[C@H](C)[C@H](N)C(=O)N[C@@H](CO)C(=O)N[C@@H](CCC(=O)O)C(=O)N[C@H](C(=O)N[C@@H](CC(N)=O)C(=O)N[C@@H](CC(C)C)C(=O)N[C@@H](CCSC)C(=O)N[C@@H](C)C(=O)N[C@@H](CCC(=O)O)C(=O)N[C@@H](Cc1ccccc1)C(=O)N[C@@H](CCCNC(=N)N)C(=O)N[C@@H](Cc1cnc[nH]1)C(N)=O)C(C)C (H-ISEVNLMAEFRH-NH2) | 0.622 |
| CC[C@H](C)[C@H](N)C(=O)N[C@@H](CO)C(=O)N[C@H](C(=O)N[C@H](C(=O)N[C@@H](CC(N)=O)C(=O)N[C@@H](CC(C)C)C(=O)N[C@@H](CC(=O)O)C(=O)N[C@@H](C)C(=O)N[C@@H](CCC(=O)O)C(=O)N[C@@H](Cc1ccccc1)C(=O)N[C@@H](CCCNC(=N)N)C(=O)N[C@@H](Cc1cnc[nH]1)C(N)=O)C(C)C)C(C)(C)C (H-IS[Tle]VNLDAEFRH-NH2) | 0.588 |

###

retention time by entry:
Target: Beta-secretase 1 (Homo sapiens)
Test: Activity of recombinant BACE assessed as retention time of substrate by HPLC method
Non-standard residues stand in square brackets, D forms with d. Residues, ends and D or L forms follow the SMILES beside them. 2Thi = N[C@@H](Cc1cccs1)C(=O)O; Cha = N[C@@H](CC1CCCCC1)C(=O)O; Cit = NC(=O)NCCC[C@H](N)C(=O)O; Phg = N[C@H](C(=O)O)c1ccccc1; Tle = CC(C)(C)[C@H](N)C(=O)O; Nva = CCC[C@H](N)C(=O)O; Abu = CC[C@H](N)C(=O)O
Quantity: retention time

| Compound | Result |
| --- | --- |
| CC[C@H](C)[C@H](N)C(=O)N[C@@H](CO)C(=O)N[C@@H](CCC(=O)O)C(=O)N[C@@H](CCC(=O)O)C(=O)N[C@@H](CC(N)=O)C(=O)N[C@@H](CC(C)C)C(=O)N[C@@H](CC(=O)O)C(=O)N[C@@H](C)C(=O)N[C@@H](CCC(=O)O)C(=O)N[C@@H](Cc1ccccc1)C(=O)N[C@@H](CCCNC(=N)N)C(=O)N[C@@H](Cc1cnc[nH]1)C(N)=O (H-ISEENLDAEFRH-NH2) | 0.457 h |
| CC[C@H](C)[C@H](N)C(=O)N[C@@H](CO)C(=O)N[C@@H](CCC(=O)O)C(=O)N[C@H](C(=O)N[C@@H](CC(N)=O)C(=O)N[C@@H](CC(C)C)C(=O)N[C@H](C(=O)N[C@@H](C)C(=O)N[C@@H](CCC(=O)O)C(=O)N[C@@H](Cc1ccccc1)C(=O)N[C@@H](CCCNC(=N)N)C(=O)N[C@@H](Cc1cnc[nH]1)C(N)=O)c1ccccc1)C(C)C (H-ISEVNL[Phg]AEFRH-NH2) | 0.617 h |
| CC[C@H](NC(=O)[C@@H](NC(=O)[C@H](CCC(=O)O)NC(=O)[C@H](CO)NC(=O)[C@@H](N)[C@@H](C)CC)C(C)C)C(=O)N[C@@H](CC(C)C)C(=O)N[C@@H](CC(=O)O)C(=O)N[C@@H](C)C(=O)N[C@@H](CCC(=O)O)C(=O)N[C@@H](Cc1ccccc1)C(=O)N[C@@H](CCCNC(=N)N)C(=O)N[C@@H](Cc1cnc[nH]1)C(N)=O (H-ISEV[Abu]LDAEFRH-NH2) | 0.5 h |
| CC[C@H](C)[C@H](N)C(=O)N[C@@H](CO)C(=O)N[C@@H](CCC(=O)O)C(=O)N[C@H](C(=O)N[C@@H](CC(N)=O)C(=O)N[C@@H](CC(C)C)C(=O)N[C@H](C(=O)N[C@@H](C)C(=O)N[C@@H](CCC(=O)O)C(=O)N[C@@H](Cc1ccccc1)C(=O)N[C@@H](CCCNC(=N)N)C(=O)N[C@@H](Cc1cnc[nH]1)C(N)=O)C(C)(C)C)C(C)C (H-ISEVNL[Tle]AEFRH-NH2) | 0.629 h |
| CCC[C@H](NC(=O)[C@H](Cc1cccs1)NC(=O)[C@H](Cc1cccs1)NC(=O)[C@@H](NC(=O)[C@H](CCC(=O)O)NC(=O)[C@H](CO)NC(=O)[C@@H](N)[C@@H](C)CC)[C@@H](C)CC)C(=O)N[C@@H](C)C(=O)N[C@@H](CCC(=O)O)C(=O)N[C@@H](Cc1ccccc1)C(=O)N[C@@H](CCCNC(=N)N)C(=O)N[C@@H](Cc1cnc[nH]1)C(N)=O (H-ISEI[2Thi][2Thi][Nva]AEFRH-NH2) | 0.658 h |
| CC[C@H](C)[C@H](N)C(=O)N[C@@H](CO)C(=O)N[C@@H](CCC(=O)O)C(=O)N[C@H](C(=O)N[C@@H](CC(N)=O)C(=O)N[C@@H](CC(C)C)C(=O)N[C@@H](CC(=O)O)C(=O)N[C@@H](C)C(=O)N[C@@H](CCC(=O)O)C(=O)N[C@@H](Cc1ccccc1)C(=O)N[C@@H](CCCNC(=N)N)C(=O)N[C@@H](Cc1cnc[nH]1)C(N)=O)c1ccccc1 (H-ISE[Phg]NLDAEFRH-NH2) | 0.514 h |
| CC[C@H](C)[C@H](N)C(=O)N[C@@H](CO)C(=O)N[C@@H](CCC(=O)O)C(=O)N[C@@H](CCCNC(N)=O)C(=O)N[C@@H](CC(N)=O)C(=O)N[C@@H](CC(C)C)C(=O)N[C@@H](CC(=O)O)C(=O)N[C@@H](C)C(=O)N[C@@H](CCC(=O)O)C(=O)N[C@@H](Cc1ccccc1)C(=O)N[C@@H](CCCNC(=N)N)C(=O)N[C@@H](Cc1cnc[nH]1)C(N)=O (H-ISE[Cit]NLDAEFRH-NH2) | 0.438 h |
| CC[C@H](C)[C@H](N)C(=O)N[C@@H](CO)C(=O)N[C@@H](CCC(=O)O)C(=O)N[C@H](C(=O)N[C@@H](CC(N)=O)C(=O)N[C@@H](Cc1ccccc1)C(=O)N[C@@H](CC(=O)O)C(=O)N[C@@H](C)C(=O)N[C@@H](CCC(=O)O)C(=O)N[C@@H](Cc1ccccc1)C(=O)N[C@@H](CCCNC(=N)N)C(=O)N[C@@H](Cc1cnc[nH]1)C(N)=O)C(C)C (H-ISEVNFDAEFRH-NH2) | 0.502 h |
| CC[C@H](C)[C@H](N)C(=O)N[C@@H](CO)C(=O)N[C@@H](CCC(=O)O)C(=O)N[C@H](C(=O)N[C@@H](CC(N)=O)C(=O)N[C@@H](CC1CCCCC1)C(=O)N[C@@H](CC(=O)O)C(=O)N[C@@H](C)C(=O)N[C@@H](CCC(=O)O)C(=O)N[C@@H](Cc1ccccc1)C(=O)N[C@@H](CCCNC(=N)N)C(=O)N[C@@H](Cc1cnc[nH]1)C(N)=O)C(C)C (H-ISEVN[Cha]DAEFRH-NH2) | 0.573 h |
